molecular target: Grb2 SH2 (UniProt P62993); experiment: SH2 binding enrichment of the phosphorylated peptide, bacterial display (enrichment ratio); higher = better substrate or ligand; peptides without Tyr show the background
ASSAY READOUT: SH2 binding enrichment

Some solved entries appear below for comparison.
1. VDTFWYKLLKR [EPM2A_Y86_F88L]
1.04
2. ASYGPNTRVQS [FOXL2_Y258_Y258N]
0.872
3. NLAAQYTTVGR [SGSH_Y240_D235N]
0.655
4. TYGVLYKARNK [CDK2_Y19_V18L]
0.962
5. PSRKDYETYQS [CTNND2_Y1154_P1159S]
0.976

(1) KGELCYMHSRV [ABCD1_Y281_R280C]
(2) EEGNPYYSSAR [MCCC2_Y520]
Of 1 and 2 , which one carries the higher reported SH2 binding enrichment? Answer = label.
1
(1: 1.31, 2: 0.818)

###

molecular target: FGFR1 (UniProt P11362); test: phosphorylation enrichment, bacterial display (enrichment ratio); higher = better substrate or ligand; peptides without Tyr show the background
Sequence (P11362 whole entry, looked up): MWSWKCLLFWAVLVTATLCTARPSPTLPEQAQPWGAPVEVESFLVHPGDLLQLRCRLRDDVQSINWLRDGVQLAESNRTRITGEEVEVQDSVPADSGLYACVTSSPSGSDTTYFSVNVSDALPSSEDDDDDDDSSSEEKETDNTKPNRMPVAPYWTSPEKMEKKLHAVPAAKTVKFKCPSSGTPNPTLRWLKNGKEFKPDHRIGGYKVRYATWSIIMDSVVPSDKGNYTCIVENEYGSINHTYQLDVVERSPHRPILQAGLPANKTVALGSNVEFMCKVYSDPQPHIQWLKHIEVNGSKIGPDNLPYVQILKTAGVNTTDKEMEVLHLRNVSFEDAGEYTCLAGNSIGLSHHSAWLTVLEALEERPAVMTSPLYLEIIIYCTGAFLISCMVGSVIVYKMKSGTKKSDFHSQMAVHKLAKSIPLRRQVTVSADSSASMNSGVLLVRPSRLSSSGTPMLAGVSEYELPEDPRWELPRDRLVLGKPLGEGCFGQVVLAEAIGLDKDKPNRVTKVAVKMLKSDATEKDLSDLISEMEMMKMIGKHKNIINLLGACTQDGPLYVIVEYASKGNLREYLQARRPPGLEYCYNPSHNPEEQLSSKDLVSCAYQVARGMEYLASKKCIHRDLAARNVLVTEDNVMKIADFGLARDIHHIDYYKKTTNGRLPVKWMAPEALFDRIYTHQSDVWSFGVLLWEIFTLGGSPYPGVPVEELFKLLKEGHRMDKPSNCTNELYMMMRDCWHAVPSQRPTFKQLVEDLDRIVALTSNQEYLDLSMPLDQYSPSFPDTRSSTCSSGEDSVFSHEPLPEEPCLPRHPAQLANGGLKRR
ASSAY READOUT: phosphorylation enrichment
Respond with the number and no other words.

1) IIRQLYLKWHP [SACS_Y4333_R4331Q]
0.473
2) ISTAGYSIPEL [EDAR_Y406]
0.416
3) RELGEYALAEF [ALDH1A3_Y492_YF]
0.725
4) DRLPSYLDKVR [KRT12_Y139_A137P]
0.408
5) IHRWVYPLTPE [EIF2B5_Y319_R315H]
0.488
6) PFQGAYLKINK [MYO1B_Y967_E969K]
0.417

Looking up NKYVAYIESQG [KDM4B_Y34] , I found its phosphorylation enrichment recorded as 0.567

Looking up GFILMYDITNK [RAB3C_Y110_E115K] , I found its phosphorylation enrichment recorded as 0.617

Looking up YRKNTYNVKST [SYNE2_Y575_I574T] , I found its phosphorylation enrichment recorded as 0.334

Looking up DRPSEYAARQL [ANXA13_Y90] , I found its phosphorylation enrichment recorded as 0.445

Looking up NVQIVYKPVDL [MAPT_Y627_S622N] , I found its phosphorylation enrichment recorded as 0.532

Looking up AKAFIYASHIV [ZNF573_Y229_G224A] , I found its phosphorylation enrichment recorded as 0.561

Looking up ARAFIYAIIPA [ACKtide_2014] , I found its phosphorylation enrichment recorded as 1.07

Looking up QDGYSYPSRQM [LDLR_Y847] , I found its phosphorylation enrichment recorded as 0.88

###

molecular target: Hck (UniProt P08631); test: phosphorylation enrichment, bacterial display (enrichment ratio); higher = better substrate or ligand; peptides without Tyr show the background
Sequence (P08631 whole entry, looked up): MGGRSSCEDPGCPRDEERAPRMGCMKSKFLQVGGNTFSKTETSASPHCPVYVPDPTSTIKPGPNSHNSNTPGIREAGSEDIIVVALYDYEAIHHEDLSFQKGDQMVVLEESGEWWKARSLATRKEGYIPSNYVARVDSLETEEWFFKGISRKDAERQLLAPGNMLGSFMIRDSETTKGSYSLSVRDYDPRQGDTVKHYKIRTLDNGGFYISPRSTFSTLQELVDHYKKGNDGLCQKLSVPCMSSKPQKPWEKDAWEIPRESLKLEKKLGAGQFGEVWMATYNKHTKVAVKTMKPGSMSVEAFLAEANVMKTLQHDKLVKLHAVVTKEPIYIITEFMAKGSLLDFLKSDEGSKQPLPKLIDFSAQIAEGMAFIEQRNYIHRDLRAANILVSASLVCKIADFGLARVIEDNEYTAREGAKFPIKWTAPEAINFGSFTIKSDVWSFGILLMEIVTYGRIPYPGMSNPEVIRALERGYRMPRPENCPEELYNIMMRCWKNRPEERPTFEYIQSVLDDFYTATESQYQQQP
Reported phosphorylation enrichment is given for each of the following sequences.
Respond with the number and no other words.

Some solved entries appear below for comparison.
1) KVKPIYFHTQG [AR_Y916]
0.385
2) INMKKYCKKDY [NTN1_Y490]
0.461
3) NLMPAYHKCIQ [CYP21A2_Y190_Y191H]
0.521
4) HRDSSYFWEIE [RAF1_Y340_Q335H_YF]
0.638
5) LKEIRYPPFTD [ALDH3B2_Y362_H361R_YF]
0.63
6) SVTCTYFPALN [TP53_Y126_S127F]
0.554
7) AGADGYDFLAP [FOXL2_Y186_G187D_YF]
0.79
8) DRLPSYLDKVR [KRT12_Y139_A137P]
0.794
9) EAVKNYTEKRG [PBRM1_Y672_D674E]
0.388
10) EFKDAYTFAAD [BRDT_Y335_K336T_YF]
0.57

Looking up LTTEVYFPSIK [C5orf64_Y60_A57T] , I found its phosphorylation enrichment recorded as 0.541

Looking up ALLTKYSRSSM [DSCC1_Y374_H376R] , I found its phosphorylation enrichment recorded as 0.384

Looking up RGRSTYYWPRP [GAGE12J_Y9] , I found its phosphorylation enrichment recorded as 0.762

Looking up IFHLSYIHNCE [PDE6B_Y227_L228I_YF] , I found its phosphorylation enrichment recorded as 0.577
